Values compiled from the supplement of paper PMC10307832.

tested on: NCI-H2347; experiment: relative viability (nuclei count vs DMSO), 5 days (fraction); higher = more cells survive; conditions: first compound 0.03162 µM
// returns -1 unless relative viability is strictly below 0.4, in which case 1

compound	subjectOfTest	group
O=c1cc(N2CCOCC2)oc2c(-c3cccc4c3sc3ccccc34)cccc12 + CS(=O)(=O)CCNCc1ccc(-c2ccc3ncnc(Nc4ccc(OCc5cccc(F)c5)c(Cl)c4)c3c2)o1 [Lapatinib] (partner 2 µM)	NCI-H2347	-1
O=c1cc(N2CCOCC2)oc2c(-c3cccc4c3sc3ccccc34)cccc12 + CC(=O)Nc1cccc(-n2c(=O)n(C3CC3)c(=O)c3c(Nc4ccc(I)cc4F)n(C)c(=O)c(C)c32)c1 [Trametinib] (partner 0.02 µM)	NCI-H2347	1
O=c1cc(N2CCOCC2)oc2c(-c3cccc4c3sc3ccccc34)cccc12 + C[C@@H](Oc1cc(-c2cnn(C3CCNCC3)c2)cnc1N)c1c(Cl)ccc(F)c1Cl [Crizotinib] (partner 1 µM)	NCI-H2347	-1
CCN(CC)CCCCNc1ncc2cc(-c3cc(OC)cc(OC)c3)c(NC(=O)NC(C)(C)C)nc2n1 + Nc1ncn([C@H]2C[C@H](O)[C@@H](CO)O2)c(=O)n1 [Decitabine] (partner 2 µM)	NCI-H2347	-1
CCN(CC)CCCCNc1ncc2cc(-c3cc(OC)cc(OC)c3)c(NC(=O)NC(C)(C)C)nc2n1 + N=C(N)NC(=N)NCCc1ccccc1 [Phenformin] (partner 250 µM)	NCI-H2347	1
CCN(CC)CCCCNc1ncc2cc(-c3cc(OC)cc(OC)c3)c(NC(=O)NC(C)(C)C)nc2n1 + CS(=O)(=O)CCNCc1ccc(-c2ccc3ncnc(Nc4ccc(OCc5cccc(F)c5)c(Cl)c4)c3c2)o1 [Lapatinib] (partner 2 µM)	NCI-H2347	-1
CCN(CC)CCCCNc1ncc2cc(-c3cc(OC)cc(OC)c3)c(NC(=O)NC(C)(C)C)nc2n1 + Cc1nc(Nc2ncc(C(=O)Nc3c(C)cccc3Cl)s2)cc(N2CCN(CCO)CC2)n1 [Dasatinib] (partner 0.075 µM)	NCI-H2347	1
O=c1cc(N2CCOCC2)oc2c(-c3cccc4c3sc3ccccc34)cccc12 + CCNC(=O)c1noc(-c2cc(C(C)C)c(O)cc2O)c1-c1ccc(CN2CCOCC2)cc1 [Luminespib] (partner 0.01 µM)	NCI-H2347	1
O=c1cc(N2CCOCC2)oc2c(-c3cccc4c3sc3ccccc34)cccc12 + NC(=O)Nc1cc(-c2cccc(F)c2)sc1C(=O)N[C@H]1CCCNC1 [AZD7762] (partner 0.2 µM)	NCI-H2347	-1
O=c1cc(N2CCOCC2)oc2c(-c3cccc4c3sc3ccccc34)cccc12 + Cc1cc(Nc2cc(N3CCN(C)CC3)nc(Sc3ccc(NC(=O)C4CC4)cc3)n2)n[nH]1 [Tozasertib] (partner 0.1 µM)	NCI-H2347	-1
CCN(CC)CCCCNc1ncc2cc(-c3cc(OC)cc(OC)c3)c(NC(=O)NC(C)(C)C)nc2n1 + O=C(c1cc(Cc2n[nH]c(=O)c3ccccc23)ccc1F)N1CCN(C(=O)C2CC2)CC1 [Olaparib] (partner 8 µM)	NCI-H2347	-1
O=c1cc(N2CCOCC2)oc2c(-c3cccc4c3sc3ccccc34)cccc12 + CC(=O)c1c(C)c2cnc(Nc3ccc(N4CCNCC4)cn3)nc2n(C2CCCC2)c1=O [Palbociclib] (partner 0.5 µM)	NCI-H2347	-1
CCN(CC)CCCCNc1ncc2cc(-c3cc(OC)cc(OC)c3)c(NC(=O)NC(C)(C)C)nc2n1 + Cc1cc(Nc2cc(N3CCN(C)CC3)nc(Sc3ccc(NC(=O)C4CC4)cc3)n2)n[nH]1 [Tozasertib] (partner 0.1 µM)	NCI-H2347	-1
